Reference source for all entries: patent US10851088B2

experiment: 24 hrs solubility in H2O at RT (HPLC of supernatant, XRPD of residual solids); format: physicochemical; conditions: water, thermodynamic from solid, 24 hrs slurry at 10 mg/mL dose concentration, HPLC
QUANTITY_KIND: solubility at 24 h (µg/mL)
# output: bare number, implied unit µg/mL

Specify reported solubility at 24 h for the compound shown: CNc1nc(Nc2cn(C(C)(C)C#N)nc2C)ncc1C(F)(F)F [Form A]
180

* * *

assay: Approximate solubility in solvents, used to choose slurry solvent systems; format: physicochemical; conditions: organic solvent or mixture; solvents other than H2O and non-polar solvents; read-out: solubility in other solvents
QUANTITY_KIND: solubility

Specify reported solubility for the compound shown: `CNc1nc(Nc2cn(C(C)(C)C#N)nc2C)ncc1C(F)(F)F`
> 40 mg/mL

* * *

assay: Approximate solubility in solvents, used to choose slurry solvent systems; type: physicochemical; settings: H2O and non-polar solvents (e.g., n-heptane, cyclohexane), water; read-out: solubility in H2O and non-polar solvents
QUANTITY_KIND: solubility

Specify reported solubility for the molecule shown: `CNc1nc(Nc2cn(C(C)(C)C#N)nc2C)ncc1C(F)(F)F`
< 2000 µg/mL
